Sourced from patent US20220251215A1

Molecular target: HLA.A2/hB2M/NY-ESO-1: 157-165 WT on 3T3 cells (human) (UniProt P04439)
Experiment: cell-based or functional assay
READOUT_TYPE: Max Fold (RLU), NFAT-luciferase (fold)
One number for each entry, in fold.

Examples from the recorded data:
NY-ESO CAR-T 24959N VH-VL (protein, part only; not given: scFv linker, hinge, signalling domains, not shown: large carriers) chain, part: QLQLLESGPGLVKPSETLSLICTVSGGSIRGSSYYWGWIRQPPEKGLEWIGSIYSSGSTYYNPSLKSRVTISADTSKNQFSLKLSSVTAADTAVYYCARHGGITAVQLEFDPWGQGTLVTVSSDIQMTQSPSSLSASVGDRVTITCQASQDISNYLKWYQQKPGKAPKILIHDASNLEIGVPSRFSGSGAGTDFIFTISSLQPEDIGTYYCQQYDNLPITFGQGTRLEIK | 13.3
NY-ESO CAR-T 24958N VH-VL (protein, part only; not given: scFv linker, hinge, signalling domains, not shown: large carriers) chain, part: QVQLQESGPGLVKPSQTLSLTCTVSGGSIISDGYYWSWIRQHPGKGLEWIGYVDYSGNTYYNPSLKSRIIMSVDTSKNQFSLKLTSVTAADTAVYFCVREGPLRDAFEIWGQGTMVTVSSDIQMTQSPSSLSASVGDRVTITCRTSQSISRYLNWYQQKPGKAPKLLIFAASSLQSGVPSRFSGSGSGADFTLTISSLQPEDFATYYCQQSYSTPPITFGQGTRLEIK | 6.7
NY-ESO CAR-T 24959N VL-VH (protein, part only; not given: scFv linker, hinge, signalling domains, not shown: large carriers) chain, part: DIQMTQSPSSLSASVGDRVTITCQASQDISNYLKWYQQKPGKAPKILIHDASNLEIGVPSRFSGSGAGTDFIFTISSLQPEDIGTYYCQQYDNLPITFGQGTRLEIKQLQLLESGPGLVKPSETLSLICTVSGGSIRGSSYYWGWIRQPPEKGLEWIGSIYSSGSTYYNPSLKSRVTISADTSKNQFSLKLSSVTAADTAVYYCARHGGITAVQLEFDPWGQGTLVTVSS | 28.6

Request: Reported Max Fold (RLU), NFAT-luciferase for NY-ESO CAR-T 24958N VL-VH (protein, part only; not given: scFv linker, hinge, signalling domains, not shown: large carriers) chain, part: DIQMTQSPSSLSASVGDRVTITCRTSQSISRYLNWYQQKPGKAPKLLIFAASSLQSGVPSRFSGSGSGADFTLTISSLQPEDFATYYCQQSYSTPPITFGQGTRLEIKQVQLQESGPGLVKPSQTLSLTCTVSGGSIISDGYYWSWIRQHPGKGLEWIGYVDYSGNTYYNPSLKSRIIMSVDTSKNQFSLKLTSVTAADTAVYFCVREGPLRDAFEIWGQGTMVTVSS : what is it?
Response: 6.4
